- Tested on: B-16 melanoma cells
- protocol-details: Evaluation of melanin production-inhibitory effect (cell-whitening degree of cultured B-16 melanoma cells); note: key: ++: The whitening degree is higher than that observed for the positive control; +: The whitening degree is almost identical to that observed for the positive control; ±: The whitening degree is not higher than that observed for the positive control, but higher than that observed for the control; −: The whitening degree is almost identical to that observed for the control
- Assay type: cell-based
- condition-context: 25 ppm; positive control 450 ppm vitamin C-magnesium phosphate
measured-quantity: Melanin production-inhibitory effect (cell-whitening degree)

>  <compound>
C=C(C)[C@@H]1CC[C@]2(C(=O)O)CC[C@]3(C)[C@H](CC[C@@H]4[C@@]5(C)CC[C@H](O)C(C)(C)[C@@H]5CC[C@]43C)[C@@H]12

>  <result>
+

$$$$
>  <compound>
CC(=O)OCC12CCC(C)(C)CC1C1=CCC3C4(C)CCC(OC(C)=O)C(C)(C)C4CCC3(C)C1(C)CC2 (stereo not shown) [Compound of Synthesis 5, 3,28-O-Di-Acetyl-Erythrodiol]

>  <result>
+

$$$$
>  <compound>
CC(=O)OC[C@]12CC[C@@H](C)[C@H](C)[C@H]1C1=CC[C@@H]3[C@@]4(C)CC[C@H](OC(C)=O)C(C)(C)[C@@H]4CC[C@@]3(C)[C@]1(C)CC2 [Compound of Synthesis 7, 3,28-O-Di-Acetyl-Uvaol]

>  <result>
+

$$$$
>  <compound>
C=C(C)[C@@H]1CC[C@]2(COC(C)=O)CC[C@]3(C)[C@H](CC[C@@H]4[C@@]5(C)CC[C@H](OC(C)=O)C(C)(C)[C@@H]5CC[C@]43C)[C@@H]12 [Compound of Synthesis 9, 3,28-O-Di-Acetyl-Betulin]

>  <result>
±

$$$$
>  <compound>
CC[Si](CC)(CC)OC(=O)[C@]12CCC(C)(C)C[C@H]1C1=CC[C@@H]3[C@@]4(C)C[C@@H](O[Si](CC)(CC)CC)[C@H](O[Si](CC)(CC)CC)C(C)(C)[C@@H]4CC[C@@]3(C)[C@]1(C)CC2 [Compound of Synthesis 3]

>  <result>
+

$$$$
>  <compound>
O=c1cc(CO)occ1O [Kojic Acid, reference compound]

>  <result>
−

$$$$
>  <compound>
C=C(C)[C@@H]1CC[C@]2(CO)CC[C@]3(C)[C@H](CC[C@@H]4[C@@]5(C)CC[C@H](O)C(C)(C)[C@@H]5CC[C@]43C)[C@@H]12

>  <result>
+

$$$$

* * *

- Test system: B-16 melanoma cells
- protocol-details: Evaluation of melanin production-inhibitory effect (cell-whitening degree of cultured B-16 melanoma cells); note: key: ++: The whitening degree is higher than that observed for the positive control; +: The whitening degree is almost identical to that observed for the positive control; ±: The whitening degree is not higher than that observed for the positive control, but higher than that observed for the control; −: The whitening degree is almost identical to that observed for the control
- Assay type: cell-based
- condition-context: 25 ppm; positive control 450 ppm vitamin C-magnesium phosphate
measured-quantity: Melanin production-inhibitory effect (cell-whitening degree)

>  <molecule>
C[C@H]1[C@H](C)CC[C@]2(CO)CC[C@]3(C)C(=CC[C@@H]4[C@@]5(C)CC[C@H](O)C(C)(C)[C@@H]5CC[C@]43C)[C@H]12 [Uvaol]

>  <result>
+

$$$$
>  <molecule>
C=C(C)[C@@H]1CC[C@]2(C(=O)OCC)CC[C@]3(C)[C@H](CC[C@@H]4[C@@]5(C)CC[C@H](O)C(C)(C)[C@@H]5CC[C@]43C)[C@@H]12 [Compound of Synthesis 8, Ethyl Betulinate]

>  <result>
+

$$$$
>  <molecule>
CC1(C)CC[C@]2(CO)CC[C@]3(C)C(=CC[C@@H]4[C@@]5(C)CC[C@H](O)C(C)(C)[C@@H]5CC[C@]43C)[C@@H]2C1 [Erythrodiol]

>  <result>
+

$$$$

* * *

- Test system: B-16 melanoma cells
- protocol-details: Evaluation of melanin production-inhibitory effect (cell-whitening degree of cultured B-16 melanoma cells); note: key: ++: The whitening degree is higher than that observed for the positive control; +: The whitening degree is almost identical to that observed for the positive control; ±: The whitening degree is not higher than that observed for the positive control, but higher than that observed for the control; −: The whitening degree is almost identical to that observed for the control
- Type: cell-based
- condition-context: 6 ppm; positive control 450 ppm vitamin C-magnesium phosphate
measured-quantity: Melanin production-inhibitory effect (cell-whitening degree)

>  <molecule>
CC1(C)CC[C@]2(CO)CC[C@]3(C)C(=CC[C@@H]4[C@@]5(C)CC[C@H](O)C(C)(C)[C@@H]5CC[C@]43C)[C@@H]2C1 [Erythrodiol]

>  <result>
±

$$$$
>  <molecule>
C=C(C)[C@@H]1CC[C@]2(C(=O)O)CC[C@]3(C)[C@H](CC[C@@H]4[C@@]5(C)CC[C@H](O)C(C)(C)[C@@H]5CC[C@]43C)[C@@H]12 [Betulinic acid]

>  <result>
±

$$$$
>  <molecule>
CC(=O)O[C@@H]1C[C@]2(C)[C@H]3CC=C4[C@@H]5CC(C)(C)CC[C@]5(C(=O)O)CC[C@@]4(C)[C@]3(C)CC[C@H]2C(C)(C)[C@H]1OC(C)=O [Compound of Synthesis 2, 2,3-O-Di-Acetyl-Maslinic Acid]

>  <result>
+

$$$$
>  <molecule>
C[C@H]1[C@H](C)CC[C@]2(CO)CC[C@]3(C)C(=CC[C@@H]4[C@@]5(C)CC[C@H](O)C(C)(C)[C@@H]5CC[C@]43C)[C@H]12 [Uvaol]

>  <result>
−

$$$$
>  <molecule>
CCOC(=O)[C@]12CC[C@@H](C)[C@H](C)[C@H]1C1=CC[C@@H]3[C@@]4(C)CC[C@H](O)C(C)(C)[C@@H]4CC[C@@]3(C)[C@]1(C)CC2 [Compound of Synthesis 6, Ethyl Ursolate]

>  <result>
++

$$$$
>  <molecule>
C=C(C)[C@@H]1CC[C@]2(COC(C)=O)CC[C@]3(C)[C@H](CC[C@@H]4[C@@]5(C)CC[C@H](OC(C)=O)C(C)(C)[C@@H]5CC[C@]43C)[C@@H]12 [Compound of Synthesis 9, 3,28-O-Di-Acetyl-Betulin]

>  <result>
−

$$$$
>  <molecule>
CC1(C)CC[C@]2(C(=O)O)CC[C@]3(C)C(=CC[C@@H]4[C@@]5(C)C[C@@H](O)[C@H](O)C(C)(C)[C@@H]5CC[C@]43C)[C@@H]2C1 [Purified maslinic acid 2, maslinic acid]

>  <result>
++

$$$$
>  <molecule>
CC(=O)OC[C@]12CC[C@@H](C)[C@H](C)[C@H]1C1=CC[C@@H]3[C@@]4(C)CC[C@H](OC(C)=O)C(C)(C)[C@@H]4CC[C@@]3(C)[C@]1(C)CC2 [Compound of Synthesis 7, 3,28-O-Di-Acetyl-Uvaol]

>  <result>
−

$$$$
>  <molecule>
C[C@H]1[C@H](C)CC[C@]2(C(=O)O)CC[C@]3(C)C(=CC[C@@H]4[C@@]5(C)CC[C@H](O)C(C)(C)[C@@H]5CC[C@]43C)[C@H]12 [Ursolic acid]

>  <result>
++

$$$$
>  <molecule>
CCOC(=O)[C@]12CCC(C)(C)C[C@H]1C1=CC[C@@H]3[C@@]4(C)C[C@@H](O)[C@H](O)C(C)(C)[C@@H]4CC[C@@]3(C)[C@]1(C)CC2 [Compound of Synthesis 1, Ethyl Ester of Maslinic Acid]

>  <result>
++

$$$$
>  <molecule>
CCCCCCCCCCCCCCCCCC(=O)O[C@@H]1C[C@]2(C)[C@H]3CC=C4[C@@H]5CC(C)(C)CC[C@]5(C(=O)OCC)CC[C@@]4(C)[C@]3(C)CC[C@H]2C(C)(C)[C@H]1OC(=O)CCCCCCCCCCCCCCCCC [Compound of Synthesis 4, Ethyl 2,3-O-Di-Stearoyl-Maslinate]

>  <result>
+

$$$$
>  <molecule>
C=C(C)[C@@H]1CC[C@]2(CO)CC[C@]3(C)[C@H](CC[C@@H]4[C@@]5(C)CC[C@H](O)C(C)(C)[C@@H]5CC[C@]43C)[C@@H]12 [Betulin]

>  <result>
±

$$$$
>  <molecule>
CC[Si](CC)(CC)OC(=O)[C@]12CCC(C)(C)C[C@H]1C1=CC[C@@H]3[C@@]4(C)C[C@@H](O[Si](CC)(CC)CC)[C@H](O[Si](CC)(CC)CC)C(C)(C)[C@@H]4CC[C@@]3(C)[C@]1(C)CC2 [Compound of Synthesis 3]

>  <result>
±

$$$$
>  <molecule>
C=C(C)[C@@H]1CC[C@]2(C(=O)OCC)CC[C@]3(C)[C@H](CC[C@@H]4[C@@]5(C)CC[C@H](O)C(C)(C)[C@@H]5CC[C@]43C)[C@@H]12 [Compound of Synthesis 8, Ethyl Betulinate]

>  <result>
±

$$$$
>  <molecule>
CC(=O)OCC12CCC(C)(C)CC1C1=CCC3C4(C)CCC(OC(C)=O)C(C)(C)C4CCC3(C)C1(C)CC2 (stereo not drawn) [Compound of Synthesis 5, 3,28-O-Di-Acetyl-Erythrodiol]

>  <result>
±

$$$$
